# assay_system: TYK2 (Homo sapiens, UniProt P29597)
# Sequence (P29597 whole entry): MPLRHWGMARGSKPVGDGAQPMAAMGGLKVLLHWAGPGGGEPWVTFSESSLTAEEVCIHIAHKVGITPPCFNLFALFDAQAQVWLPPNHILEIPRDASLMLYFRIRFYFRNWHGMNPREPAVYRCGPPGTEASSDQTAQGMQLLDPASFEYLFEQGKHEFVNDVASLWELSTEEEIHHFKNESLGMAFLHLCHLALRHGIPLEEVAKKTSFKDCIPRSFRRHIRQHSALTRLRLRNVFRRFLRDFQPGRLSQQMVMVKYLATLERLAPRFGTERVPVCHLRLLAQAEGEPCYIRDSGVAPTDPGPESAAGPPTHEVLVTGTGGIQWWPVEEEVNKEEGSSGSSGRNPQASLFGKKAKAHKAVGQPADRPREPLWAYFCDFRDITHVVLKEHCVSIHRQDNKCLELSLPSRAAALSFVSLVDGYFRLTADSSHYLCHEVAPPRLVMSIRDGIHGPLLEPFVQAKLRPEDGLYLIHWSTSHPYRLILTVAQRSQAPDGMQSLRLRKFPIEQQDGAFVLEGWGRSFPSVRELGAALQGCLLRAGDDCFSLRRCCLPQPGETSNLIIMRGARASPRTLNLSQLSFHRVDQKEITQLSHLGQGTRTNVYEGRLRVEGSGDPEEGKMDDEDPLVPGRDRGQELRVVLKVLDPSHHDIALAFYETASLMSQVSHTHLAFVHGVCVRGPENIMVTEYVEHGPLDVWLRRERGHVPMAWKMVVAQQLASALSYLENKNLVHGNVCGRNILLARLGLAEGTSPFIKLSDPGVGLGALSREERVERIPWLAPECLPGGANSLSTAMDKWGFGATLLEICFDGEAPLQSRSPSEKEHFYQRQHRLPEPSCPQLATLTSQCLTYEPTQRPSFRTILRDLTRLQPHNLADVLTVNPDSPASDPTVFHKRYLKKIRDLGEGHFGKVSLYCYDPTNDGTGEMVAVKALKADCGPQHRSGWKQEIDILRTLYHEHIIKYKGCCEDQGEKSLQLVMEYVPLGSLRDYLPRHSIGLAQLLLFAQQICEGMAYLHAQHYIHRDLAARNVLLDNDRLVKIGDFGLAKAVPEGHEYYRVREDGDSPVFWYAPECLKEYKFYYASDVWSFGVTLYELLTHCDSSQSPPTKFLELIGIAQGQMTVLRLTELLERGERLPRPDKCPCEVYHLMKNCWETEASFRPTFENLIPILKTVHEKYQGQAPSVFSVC
# assay_notes: JAK assay (KINASE-GLO luminescent kinase assay), TYK2
# Type: biochemical
# setup_conditions: 10 nM JAK enzyme, 800 nM Abl peptide, room temperature 75 min
quantity_name: IC50

• Cc1cnc(Nc2ccc(N3CCOCC3)cc2)nc1-c1cnn(CC2(C#N)CC2)c1 [C(C1═C(N═C(NC2═CC═C(C═C2)N3CCOCC3)] = < 10 nM

**Q:** Entry CNC1(Cn2cc(-c3nc(Nc4cc(C)ns4)ncc3Cl)cn2)CC1 [CNC1(CC1)C[N]2C═C(C═N2)C3═C] has what IC50?
**A:** < 100 nM

**Q:** Entry Cc1cnc(Nc2ccc(CNC(=O)[C@H](C)NC(=O)OC(C)(C)C)cc2)nc1-c1cnn(CC2(CF)CC2)c1 [C[C@H](NC(═O)OC(C)(C)C)C] has what IC50?
**A:** < 100 nM

**Q:** Entry Cc1cnc(Nc2cccc(C(=O)N(C)C)c2)nc1-c1cnn(CC2(CF)CC2)c1 [CN(C)C(═O)C1═CC(═CC═C1)NC2═NC] has what IC50?
**A:** < 100 nM

**Q:** Entry Cc1cnc(Nc2cc(C(=O)O)ns2)nc1-c1cnn(CC2(CF)CC2)c1 [CC1═C(N═C(NC2═CC(═NS2)C] has what IC50?
**A:** < 100 nM

**Q:** Entry Cc1cnc(Nc2cc(CO)ns2)nc1-c1cnn(CC2(CF)CC2)c1 [CC1═C(N═C(NC2═CC(═NS2)CO)N═C1)C3═C[N]] has what IC50?
**A:** < 10 nM

**Q:** Entry N#CC1(Cn2cc(-c3nc(Nc4ccc(C(=O)O)nc4)ncc3Cl)cn2)CC1 [OC(═O)C1═NC═C(NC2═NC(═C] has what IC50?
**A:** < 100 nM

**Q:** Entry Cc1ccc(S(=O)(=O)Nc2ncc(Cl)c(-c3cnn(CCC#N)c3)n2)cc1 [CC1═CC═C(C═C1)[S](═O)(═O)NC2═NC] has what IC50?
**A:** < 100000 nM

**Q:** Entry Cc1cnc(Nc2cc(CNC(=O)CCN(C)C)ns2)nc1-c1cnn(CC2(CF)CC2)c1 [CN(C)CCC(═O)NCC1═NSC(═C1)NC2═NC] has what IC50?
**A:** < 10 nM

**Q:** Entry N#CCCn1cc(-c2nc(NC3CCNCC3(F)F)ncc2Cl)cn1 (stereo not drawn) [FC1(F)CNCCC1NC2═NC(═C] has what IC50?
**A:** > 50000 nM

**Q:** Entry Cc1cnc(Nc2ccc(CNC(=O)OC(C)(C)C)cc2)nc1-c1cnn(CC2(CF)CC2)c1 [CC1═C(N═C(NC2═CC═C(CNC(═O)OC] has what IC50?
**A:** < 100 nM

**Q:** Entry Cc1cnc(Nc2ccc(C(=O)NCCN(C)C)cc2)nc1-c1cnn(CC2(CF)CC2)c1 [CN(C)CCNC(═O)C1═CC═C(NC2═NC] has what IC50?
**A:** < 10 nM

**Q:** Entry Cc1cnc(Nc2cc(CN(C)C)ns2)nc1-c1cnn(CC2(CF)CC2)c1 [CN(C)CC1═NSC(═C1)NC2═NC(═C] has what IC50?
**A:** < 10 nM

**Q:** Entry COC1(c2ccc(Nc3ncc(C)c(-c4cnn(CC5(CF)CC5)c4)n3)cc2)COC1 [COC1(COC1)C2═CC═C(NC3═NC(═C] has what IC50?
**A:** < 1000 nM

**Q:** Entry Cc1cnc(NCCCN2CCOCC2)nc1-c1cnn(CCC#N)c1 [CC1═C(N═C(NCCCN2CCOCC2)N═C1)C3═C[N]] has what IC50?
**A:** < 100000 nM

====

# assay_system: UniProt:P23458
# Sequence (P23458 whole entry): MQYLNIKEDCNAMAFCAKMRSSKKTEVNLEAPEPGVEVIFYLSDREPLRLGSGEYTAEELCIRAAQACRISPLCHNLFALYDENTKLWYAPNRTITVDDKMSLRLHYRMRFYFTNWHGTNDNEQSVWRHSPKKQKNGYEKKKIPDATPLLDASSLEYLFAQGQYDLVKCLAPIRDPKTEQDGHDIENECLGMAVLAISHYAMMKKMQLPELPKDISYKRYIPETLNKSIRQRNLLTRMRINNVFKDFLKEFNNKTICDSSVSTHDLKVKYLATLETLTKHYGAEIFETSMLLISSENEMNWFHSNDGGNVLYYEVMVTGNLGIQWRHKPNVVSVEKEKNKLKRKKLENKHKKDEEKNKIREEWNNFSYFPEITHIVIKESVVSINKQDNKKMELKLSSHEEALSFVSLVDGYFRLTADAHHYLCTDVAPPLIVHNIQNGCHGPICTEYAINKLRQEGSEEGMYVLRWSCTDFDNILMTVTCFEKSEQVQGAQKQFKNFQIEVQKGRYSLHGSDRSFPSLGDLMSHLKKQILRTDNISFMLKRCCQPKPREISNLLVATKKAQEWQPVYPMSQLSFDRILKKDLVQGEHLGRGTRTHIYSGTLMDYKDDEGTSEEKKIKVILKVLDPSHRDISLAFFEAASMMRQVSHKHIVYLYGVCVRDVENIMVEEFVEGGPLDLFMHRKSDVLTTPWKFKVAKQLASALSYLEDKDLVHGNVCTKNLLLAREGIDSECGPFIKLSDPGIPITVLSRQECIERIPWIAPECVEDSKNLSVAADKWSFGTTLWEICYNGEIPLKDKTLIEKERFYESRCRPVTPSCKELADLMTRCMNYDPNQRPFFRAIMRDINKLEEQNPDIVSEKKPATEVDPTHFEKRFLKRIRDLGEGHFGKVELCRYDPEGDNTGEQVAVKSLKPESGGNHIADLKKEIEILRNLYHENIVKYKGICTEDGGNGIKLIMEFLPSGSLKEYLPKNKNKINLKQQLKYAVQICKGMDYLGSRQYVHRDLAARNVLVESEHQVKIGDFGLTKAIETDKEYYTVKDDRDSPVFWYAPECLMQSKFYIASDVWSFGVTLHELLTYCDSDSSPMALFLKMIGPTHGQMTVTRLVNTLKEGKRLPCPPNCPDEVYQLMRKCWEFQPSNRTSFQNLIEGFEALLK
# assay_notes: JAK assay (KINASE-GLO luminescent kinase assay), JAK1
# Assay type: biochemical
# setup_conditions: 10 nM JAK enzyme, 800 nM Abl peptide, room temperature 75 min
quantity_name: IC50

Below, 6 compounds whose answers are already recorded.
• Cc1cnc(Nc2ccc(CNC(=O)OC(C)(C)C)cc2)nc1-c1cnn(CC2(CF)CC2)c1 = < 100 nM
• N#CC1(Cn2cc(-c3nc(Nc4ccc(C(=O)O)nc4)ncc3Cl)cn2)CC1 = < 100 nM
• Cc1cnc(Nc2ccc(N3CCN(C)CC3)cc2)nc1-c1cnn(CC2(C#N)CC2)c1 [CN1CCN(CC1)C2═CC═C(NC3═NC(═C(C([2H])] = < 100 nM
• Cc1cnc(NCCN2CCOCC2)nc1-c1cnn(CCC#N)c1 [CC1═C(N═C(NCCN2CCOCC2)N═C1)C3═C[N]] = < 100000 nM
• Cc1cnc(Nc2ccc(C(=O)N(C)C)cc2)nc1-c1cnn(CC2(CF)CC2)c1 = < 100 nM
• Cc1cnc(NC2CCOCC2)nc1-c1cnn(CCC#N)c1 [CC1═C(N═C(NC2CCOCC2)N═C1)C3═C[N]] = < 100000 nM

**Q:** Which measured IC50 belongs to Cc1cnc(Nc2ccc(CN3CCOCC3)cc2)nc1 , tested on UniProt:P23458?
**A:** < 100 nM

**Q:** Which measured IC50 belongs to N#CCCn1cc(-c2nc(Nc3ccc(N4CCOCC4)cc3F)ncc2Cl)cn1 , tested on UniProt:P23458?
**A:** < 1000 nM

====

# assay_system: JAK2 (Homo sapiens)
# Sequence (O60674 whole entry): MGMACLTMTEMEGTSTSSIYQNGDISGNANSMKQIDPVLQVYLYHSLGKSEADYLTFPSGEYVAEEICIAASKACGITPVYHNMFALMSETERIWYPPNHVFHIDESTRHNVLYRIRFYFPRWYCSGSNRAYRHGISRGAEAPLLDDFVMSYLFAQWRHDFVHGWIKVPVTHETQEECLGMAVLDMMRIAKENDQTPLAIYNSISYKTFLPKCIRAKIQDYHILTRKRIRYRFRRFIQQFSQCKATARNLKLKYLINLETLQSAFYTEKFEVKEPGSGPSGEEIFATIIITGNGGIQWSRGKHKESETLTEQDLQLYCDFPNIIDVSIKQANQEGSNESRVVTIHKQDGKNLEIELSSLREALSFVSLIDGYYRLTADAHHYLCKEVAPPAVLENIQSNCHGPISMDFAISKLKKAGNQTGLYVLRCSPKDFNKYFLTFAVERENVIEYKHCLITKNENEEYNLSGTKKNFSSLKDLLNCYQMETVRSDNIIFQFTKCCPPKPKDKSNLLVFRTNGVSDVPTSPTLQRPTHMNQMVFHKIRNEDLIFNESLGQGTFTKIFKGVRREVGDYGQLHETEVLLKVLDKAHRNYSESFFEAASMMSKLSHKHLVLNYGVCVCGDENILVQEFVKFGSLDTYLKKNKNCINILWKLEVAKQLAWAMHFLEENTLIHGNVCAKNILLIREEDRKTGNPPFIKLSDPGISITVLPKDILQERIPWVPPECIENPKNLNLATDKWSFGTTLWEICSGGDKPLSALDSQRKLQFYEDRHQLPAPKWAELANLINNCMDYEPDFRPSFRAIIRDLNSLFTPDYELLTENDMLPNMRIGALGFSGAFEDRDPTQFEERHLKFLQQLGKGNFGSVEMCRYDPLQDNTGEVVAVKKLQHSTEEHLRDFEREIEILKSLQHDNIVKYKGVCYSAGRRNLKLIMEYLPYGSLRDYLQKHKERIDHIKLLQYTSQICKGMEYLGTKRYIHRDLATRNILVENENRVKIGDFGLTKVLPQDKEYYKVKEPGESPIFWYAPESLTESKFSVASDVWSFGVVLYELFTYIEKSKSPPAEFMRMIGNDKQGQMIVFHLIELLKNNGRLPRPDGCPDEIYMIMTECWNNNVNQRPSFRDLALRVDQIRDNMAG
# assay_notes: JAK assay (KINASE-GLO luminescent kinase assay), JAK2
# Type: biochemical
# setup_conditions: 10 nM JAK enzyme, 800 nM Abl peptide, room temperature 75 min
Listed next: entries and their corresponding IC50.

Below, 2 compounds whose answers are already recorded.
* Cc1cc(Nc2ncc(Cl)c(-c3cnn(CCC#N)c3)n2)no1 | < 100 nM
* NC(=O)CCn1cc(-c2nc(NC3CCNCC3(F)F)ncc2Cl)cn1 (stereo not drawn) [NC(═O)CC[N]1C═C(C═N1)C2═C] | < 100000 nM

**Q:** Entry Cc1cnc(Nc2cccc(C(N)=O)c2)nc1-c1cnn(CC2(CF)CC2)c1 [CC1═C(N═C(NC2═CC═CC(═C2)C] has what IC50?
**A:** < 10 nM

====

# assay_system: JAK3 (Homo sapiens)
# Sequence (P52333 1-1124): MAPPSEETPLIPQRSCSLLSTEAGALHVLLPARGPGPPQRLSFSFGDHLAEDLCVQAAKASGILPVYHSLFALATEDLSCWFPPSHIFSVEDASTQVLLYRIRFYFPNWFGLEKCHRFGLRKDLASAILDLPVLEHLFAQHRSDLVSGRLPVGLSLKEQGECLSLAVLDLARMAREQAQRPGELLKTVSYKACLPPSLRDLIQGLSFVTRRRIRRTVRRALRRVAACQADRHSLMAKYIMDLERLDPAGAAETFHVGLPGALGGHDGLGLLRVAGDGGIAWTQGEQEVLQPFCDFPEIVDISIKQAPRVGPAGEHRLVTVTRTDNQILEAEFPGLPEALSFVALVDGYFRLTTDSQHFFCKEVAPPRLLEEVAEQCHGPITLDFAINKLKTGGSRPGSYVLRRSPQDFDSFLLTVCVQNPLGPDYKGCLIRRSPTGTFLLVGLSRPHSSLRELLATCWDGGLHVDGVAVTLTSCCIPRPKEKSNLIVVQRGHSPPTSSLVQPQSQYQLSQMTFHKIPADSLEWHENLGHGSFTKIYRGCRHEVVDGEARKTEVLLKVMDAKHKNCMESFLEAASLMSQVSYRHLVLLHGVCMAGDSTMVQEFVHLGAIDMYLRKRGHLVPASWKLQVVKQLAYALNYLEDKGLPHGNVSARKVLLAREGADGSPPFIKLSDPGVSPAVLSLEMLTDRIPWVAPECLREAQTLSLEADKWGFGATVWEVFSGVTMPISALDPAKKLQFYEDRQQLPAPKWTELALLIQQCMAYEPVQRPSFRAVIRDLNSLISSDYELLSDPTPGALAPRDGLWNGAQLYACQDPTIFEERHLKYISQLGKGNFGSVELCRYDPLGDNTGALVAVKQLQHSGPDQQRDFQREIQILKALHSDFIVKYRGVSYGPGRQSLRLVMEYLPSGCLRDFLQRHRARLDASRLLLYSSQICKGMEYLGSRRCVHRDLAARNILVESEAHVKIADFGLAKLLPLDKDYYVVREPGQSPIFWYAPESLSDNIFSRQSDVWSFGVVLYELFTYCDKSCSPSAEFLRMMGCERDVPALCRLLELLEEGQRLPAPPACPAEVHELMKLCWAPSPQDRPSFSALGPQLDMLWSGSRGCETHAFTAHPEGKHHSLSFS
# assay_notes: JAK assay (KINASE-GLO luminescent kinase assay), JAK3
# Assay type: biochemical
# setup_conditions: 10 nM JAK enzyme, 800 nM Abl peptide, room temperature 75 min
quantity_name: IC50

Below, 3 compounds whose answers are already recorded.
- Cc1cc(Nc2ncc(Cl)c(-c3cnn(CCC#N)c3)n2)no1 [CC1═CC(═NO1)NC2═NC(═C]: < 1000 nM
- N#CCCn1cc(-c2nc(Nc3ccc(CCOP(=O)(O)O)cc3)ncc2Cl)cn1 [O[P](O)(═O)OCCC1═CC═C(NC2═NC(═C]: < 100 nM
- Cc1cnc(N2CCCCC2)nc1-c1cnn(CCC#N)c1 [CC1═C(N═C(N═C1)N2CCCCC2)C3═C[N]]: > 50000 nM

Next up:
**Q:** Entry COc1cnc(Nc2ccc(N3CCN(C)CC3)cc2)nc1-c1cnn(CC2(Cl)CC2)c1 [COC1═C(N═C(NC2═CC═C] has what IC50?
**A:** < 10 nM
